# credit: patent US20250152585A1

- system: UniProtKB P09874
- Sequence (P09874 whole entry): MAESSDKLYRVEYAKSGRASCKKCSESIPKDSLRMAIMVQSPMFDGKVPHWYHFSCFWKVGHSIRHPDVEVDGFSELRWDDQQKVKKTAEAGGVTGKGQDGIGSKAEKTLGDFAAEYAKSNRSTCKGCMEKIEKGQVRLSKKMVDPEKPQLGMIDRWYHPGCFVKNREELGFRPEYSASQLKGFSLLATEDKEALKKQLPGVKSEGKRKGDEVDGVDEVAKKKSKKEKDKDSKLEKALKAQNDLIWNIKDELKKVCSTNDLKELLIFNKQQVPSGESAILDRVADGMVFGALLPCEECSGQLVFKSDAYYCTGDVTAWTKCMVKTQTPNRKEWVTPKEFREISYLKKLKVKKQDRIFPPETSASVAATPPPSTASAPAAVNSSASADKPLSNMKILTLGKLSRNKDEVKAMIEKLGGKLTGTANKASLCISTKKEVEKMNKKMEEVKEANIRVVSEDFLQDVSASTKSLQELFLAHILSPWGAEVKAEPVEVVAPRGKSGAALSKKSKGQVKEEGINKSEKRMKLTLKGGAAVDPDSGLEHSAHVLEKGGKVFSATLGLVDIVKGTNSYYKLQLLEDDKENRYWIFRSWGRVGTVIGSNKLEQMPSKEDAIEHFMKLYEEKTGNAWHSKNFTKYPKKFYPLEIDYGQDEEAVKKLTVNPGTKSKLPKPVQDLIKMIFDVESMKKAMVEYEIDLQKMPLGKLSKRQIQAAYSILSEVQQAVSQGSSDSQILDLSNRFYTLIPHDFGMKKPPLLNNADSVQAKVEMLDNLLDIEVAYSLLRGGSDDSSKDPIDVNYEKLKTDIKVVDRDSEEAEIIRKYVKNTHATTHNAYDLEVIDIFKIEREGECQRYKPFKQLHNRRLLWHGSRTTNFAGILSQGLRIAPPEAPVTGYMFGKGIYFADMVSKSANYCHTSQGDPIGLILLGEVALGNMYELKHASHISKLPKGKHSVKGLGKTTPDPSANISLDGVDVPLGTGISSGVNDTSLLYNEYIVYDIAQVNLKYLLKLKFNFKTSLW
- protocol-summary: PARP1 biochemical DELFIA assay (auto-PARylation)
- Design: recombinant full length human N-terminally FLAG-tagged PARP1
- assay-setup: binned IC50, biochemical auto-PARylation assay
measurement-label: IC50

Worked cases, IC50 given:
CC(=O)Nc1ccc(N2CCC(N3CCC(c4nc5ccccc5c(=O)[nH]4)C3)CC2)cn1 (single isomer, unassigned) [Compound 262a] :: 100 to 1000 nM
CNC(=O)c1ccc(N2CCC(N3CCC(c4cc5ncc(F)cc5c(=O)[nH]4)C3)CC2)c(F)n1 (single isomer, unassigned) [Compound 324a] :: < 10 nM
CNC(=O)c1cc(Cl)c(N2CCC(N3CCC(c4cc5ccc(F)cc5c(=O)[nH]4)C3)CC2)cn1 (single isomer, unassigned) [Compound 236b] :: < 10 nM
N#Cc1ccc(N2CCC(N3CCC(c4cc5cccc(F)c5c(=O)[nH]4)C3)CC2)cc1 (single isomer, unassigned) [Compound 314b] :: < 10 nM
CC(=O)Nc1ccc(N2CCC(N3CCC(c4cc5ccccc5c(=O)[nH]4)C3)CC2)c(Cl)c1 (single isomer, unassigned) [Compound 273a] :: 100 to 1000 nM
CNC(=O)c1ccc(N2CCC(N3CC4(c5nc6ncc(F)cc6c(=O)[nH]5)CC3C4)CC2)cn1 :: < 10 nM
CNC(=O)c1ccc(N2CCC(N3CCC(c4cnc(CC(F)(F)F)c(=O)[nH]4)C3)CC2)cn1 (single isomer, unassigned) [Compound 287b] :: 1000 to 10000 nM
CNC(=O)c1ccc(N2CCC(N3CC4(c5nc6ccccc6c(=O)[nH]5)CCC3C4)CC2)cn1 (single isomer, unassigned) [Compound 245b] :: 10 to 100 nM

So, CNC(=O)c1cc(Cl)c(N2CCC(N3CCC(c4cc5ccc(F)cc5c(=O)[nH]4)C3)CC2)cn1 (single isomer, unassigned) [Compound 236a] ? Its IC50 was 10 to 100 nM

So, CCc1ccc(C2CCN(C3CCN(c4ccc(C(=O)NCC(F)F)nc4)CC3)C2)[nH]c1=O (single isomer, unassigned) [Compound 354b] ? Its IC50 was < 10 nM

So, CNC(=O)c1ccc(N2CCC(N3CCC(c4cc5[nH]nc(C(F)(F)F)c5c(=O)[nH]4)C3)CC2)c(F)n1 (single isomer, unassigned) [Compound 280a] ? Its IC50 was 10 to 100 nM

So, CNC(=O)c1ccc(N2CCC(N3CCC(c4cc5c(c(=O)[nH]4)COCC5)C3)CC2)cn1 (racemic) ? Its IC50 was < 10 nM

====

- system: N-terminally FLAG-tagged PARP2 (amino acids 1-583) (Homo sapiens)
- Construct: N-terminally FLAG-tagged PARP2 (amino acids 1-583)
- Sequence (Q9UGN5 whole entry, the tested form may be a part): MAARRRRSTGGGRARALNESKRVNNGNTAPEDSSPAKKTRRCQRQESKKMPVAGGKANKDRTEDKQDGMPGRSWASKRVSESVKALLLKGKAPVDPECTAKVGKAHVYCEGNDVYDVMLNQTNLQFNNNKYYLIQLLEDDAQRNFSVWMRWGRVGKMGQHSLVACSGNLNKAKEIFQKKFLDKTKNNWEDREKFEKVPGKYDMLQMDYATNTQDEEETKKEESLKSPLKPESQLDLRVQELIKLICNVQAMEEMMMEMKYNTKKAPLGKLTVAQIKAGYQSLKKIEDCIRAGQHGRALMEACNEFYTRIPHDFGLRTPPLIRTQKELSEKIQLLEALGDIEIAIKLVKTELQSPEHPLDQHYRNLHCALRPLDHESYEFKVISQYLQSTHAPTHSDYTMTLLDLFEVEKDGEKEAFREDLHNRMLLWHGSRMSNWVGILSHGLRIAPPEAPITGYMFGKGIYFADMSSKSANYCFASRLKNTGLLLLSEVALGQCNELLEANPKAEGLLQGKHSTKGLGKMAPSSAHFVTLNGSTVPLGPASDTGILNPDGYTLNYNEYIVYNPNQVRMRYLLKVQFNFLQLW
- protocol-summary: PARP2 probe displacement HTRF assay
- Type: binding
- assay-setup: binned Kd, probe displacement HTRF
measurement-label: Kd

Worked cases, Kd given:
CCN1CCCc2c1nc(C13CC(C1)N(C1CCN(c4ccc(C(=O)NC)nc4)CC1)C3)[nH]c2=O :: 100 to 1000 nM
CNC(=O)c1ccc(N2CCC(N3CCC(c4cc5ccc(F)cc5c(=O)[nH]4)C3)CC2)c(Cl)n1 (single isomer, unassigned) [Compound 223a] :: 100 to 1000 nM

So, N#Cc1nc(C(=O)NC2CC2)ccc1N1CCC(N2CCC(c3cc4cccc(F)c4c(=O)[nH]3)C2)CC1 (single isomer, unassigned) [Compound 410a] ? Its Kd was 100 to 1000 nM
